test: self-splicing fitness, log relative to wild type (ln ratio); higher = more splicing; Tetrahymena group I intron in knt gene, E. coli kanamycin selection, DiMSum; sequences stand for … in CUCUCU…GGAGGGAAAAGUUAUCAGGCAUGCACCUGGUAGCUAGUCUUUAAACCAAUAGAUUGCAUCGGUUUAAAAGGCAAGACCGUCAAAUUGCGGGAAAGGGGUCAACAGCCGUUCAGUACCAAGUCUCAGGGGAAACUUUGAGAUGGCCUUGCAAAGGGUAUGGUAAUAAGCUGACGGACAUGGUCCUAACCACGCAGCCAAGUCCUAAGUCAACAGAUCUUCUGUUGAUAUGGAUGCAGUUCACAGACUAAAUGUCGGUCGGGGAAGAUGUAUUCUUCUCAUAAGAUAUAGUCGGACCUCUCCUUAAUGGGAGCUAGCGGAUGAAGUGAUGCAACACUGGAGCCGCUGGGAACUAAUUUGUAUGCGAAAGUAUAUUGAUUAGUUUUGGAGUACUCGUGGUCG; conditions: 30 °C;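 also: selection with 25 µg/mL kanamycin versus none on LB agar overnight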
ASSAY_METRIC: self-splicing fitness (ln)
Quick one: just the number, no unit, thanks!

Answered examples (5):
SEQ | self-splicing fitness (ln)
AGAUAGCAAUAUUACGAUAG | -2.88
CUGUAGCAAUAUUACGUGGU | -3.42
CCGGAGCAAUAUUACGUUUC | -2.4
UGGUAGCAAUAUUACGGGUA | -2.28
GCCUAGCAAUAUUACGUCUA | -3.26

self-splicing fitness (ln) reading for "CUAUAGCAAUAUUACGGAAG" : -1.87

self-splicing fitness (ln) reading for "CCCGAGCAAUAUUACGCUCG" : -3.62

self-splicing fitness (ln) reading for "CAAGAGCAAUAUUACGUCAU" : -4.3

self-splicing fitness (ln) reading for "AUCGAGCAAUAUUACGCCUC" : -2.06

self-splicing fitness (ln) reading for "GGCCAGCAAUAUUACGGACG" : -0.421

self-splicing fitness (ln) reading for "UUUCAGCAAUAUUACGGUAU" : -3.02

self-splicing fitness (ln) reading for "UCCGAGCAAUAUUACGGGGG" : -4.27

self-splicing fitness (ln) reading for "UUCAAGCAAUAUUACGCGUA" : -1.17
